Hello, the source for this data is PubChem BioAssay (NCI), in case you need it.

# key: entry, value: growth
- Test system: HS 578T breast
- experiment_summary: NCI-60 one-dose screen, 48 h (100 = growth as untreated, 0 = no growth, -100 = all killed)
- cond: 10 µM unless noted
This is part of a sample that, as a whole, favours compounds with a hit. Of some 83,000 tested, about 20% had one in any assay.
Give just the number in %; leave the unit off.

Answered cases to consult:
{"molecule": "O=C(CNc1nc(-c2cccc([N+](=O)[O-])c2)cs1)Nc1cccc([N+](=O)[O-])c1", "growth [%]": -11.8}
{"molecule": "CCOC(=O)C(=O)/C(=C\\c1ccc(Cl)cc1)C(=O)N1C(=S)NC(=O)C1CC(C)C (centres undefined)", "growth [%]": 106}
{"molecule": "O=C(Nc1nc2ccc([N+](=O)[O-])cc2s1)Nc1ccccc1Br", "growth [%]": 47.1}

// CC1(C)CC[C@]2(C(=O)O)CC[C@]3(C)C(=CC[C@@H]4[C@@]5(C)CC/C(=N\OCCC#N)C(C)(C)[C@@H]5CC[C@]43C)[C@@H]2C1 : growth value = 107

// O=C(Nc1ccc(Br)cc1)Nc1nc2ccc([N+](=O)[O-])cc2s1 : growth value = -3.63

###

- Tested on: BT-549 breast
- experiment_summary: NCI-60 one-dose screen, 48 h (100 = growth as untreated, 0 = no growth, -100 = all killed)
- cond: 10 µM unless noted
- Method: Growth inhibition of the BT-549 human tumor cell line is measured as a screen for anti-cancer activity. Cells are grown in 96 well plates and exposed to the test compound for 48 hours. Compounds are tested at a single concentration, which is 10^-5 M for most compounds. The reported endpoint is percent growth (GI% or GIPRCNT), where numbers from 0 - 100% represent growth inhibition, and numbers from -100% - 0 represent cell death. For example, a value of 40 represents 60% growth inhibition. […]
Compounds without any hit were thinned out: in the full panel of roughly 83,000, 20% have a hit.
recorded_metric: growth (%)
Give just the number in %; leave the unit off.

Answered cases to consult:
{"compound": "O=c1c2ccccc2nc(COc2ccccc2)n1NS(=O)(=O)c1ccc(Cl)cc1", "growth, %": 106}
{"compound": "COc1cc(-c2nc(-c3ccccc3)[nH]c2-c2ccnc(NCCCNS(=O)(=O)c3cccc(F)c3)n2)ccc1Cl", "growth, %": 71}
{"compound": "Nc1nc(-c2cccc([N+](=O)[O-])c2)c(N=Nc2ccc([N+](=O)[O-])cc2Cl)s1", "growth, %": -24.9}
{"compound": "O=C(NCCN1CCCC1)c1ccc(-c2nc3ccc4[nH]ncc4c3c3c2CCCC3)cc1", "growth, %": -33.4}
{"compound": "N#Cc1ccccc1Cn1c2nc(=N)c3ccccc3c-2nc2ccccc21", "growth, %": 88}

// COc1cc(OC)cc(C(=O)Nc2sc3c(c2C(N)=O)CCC(=O)C3)c1 : growth value = 11.1

// Cc1ccc2sc3c(c2c1)OC(N)=C(C#N)C3c1ccc(Cl)cc1 (stereo not given) : growth value = 26.3

// O=C1CCC(N2C(=O)c3ccc(NS(=O)(=O)c4ccccc4OC(F)(F)F)cc3C2=O)C(=O)N1 (stereo not given) : growth value = 14.8

// CCOc1ccc(NC2=C(Cl)C(=O)c3nc(C)ccc3C2=O)cc1 : growth value = 46.5

// O=C(NNc1nc2cc(F)ccc2n2c(CN3CCC(O)C3)ccc12)c1cnccn1 (stereo not given) : growth value = 29.5
